- Assay System: P-glycoprotein (P-gp, ABCB1) (Homo sapiens, UniProt P08183)
- Construct: inside-out membrane vesicles prepared from HEK293 cells overexpressing human P-gp
- Sequence (P08183 whole entry): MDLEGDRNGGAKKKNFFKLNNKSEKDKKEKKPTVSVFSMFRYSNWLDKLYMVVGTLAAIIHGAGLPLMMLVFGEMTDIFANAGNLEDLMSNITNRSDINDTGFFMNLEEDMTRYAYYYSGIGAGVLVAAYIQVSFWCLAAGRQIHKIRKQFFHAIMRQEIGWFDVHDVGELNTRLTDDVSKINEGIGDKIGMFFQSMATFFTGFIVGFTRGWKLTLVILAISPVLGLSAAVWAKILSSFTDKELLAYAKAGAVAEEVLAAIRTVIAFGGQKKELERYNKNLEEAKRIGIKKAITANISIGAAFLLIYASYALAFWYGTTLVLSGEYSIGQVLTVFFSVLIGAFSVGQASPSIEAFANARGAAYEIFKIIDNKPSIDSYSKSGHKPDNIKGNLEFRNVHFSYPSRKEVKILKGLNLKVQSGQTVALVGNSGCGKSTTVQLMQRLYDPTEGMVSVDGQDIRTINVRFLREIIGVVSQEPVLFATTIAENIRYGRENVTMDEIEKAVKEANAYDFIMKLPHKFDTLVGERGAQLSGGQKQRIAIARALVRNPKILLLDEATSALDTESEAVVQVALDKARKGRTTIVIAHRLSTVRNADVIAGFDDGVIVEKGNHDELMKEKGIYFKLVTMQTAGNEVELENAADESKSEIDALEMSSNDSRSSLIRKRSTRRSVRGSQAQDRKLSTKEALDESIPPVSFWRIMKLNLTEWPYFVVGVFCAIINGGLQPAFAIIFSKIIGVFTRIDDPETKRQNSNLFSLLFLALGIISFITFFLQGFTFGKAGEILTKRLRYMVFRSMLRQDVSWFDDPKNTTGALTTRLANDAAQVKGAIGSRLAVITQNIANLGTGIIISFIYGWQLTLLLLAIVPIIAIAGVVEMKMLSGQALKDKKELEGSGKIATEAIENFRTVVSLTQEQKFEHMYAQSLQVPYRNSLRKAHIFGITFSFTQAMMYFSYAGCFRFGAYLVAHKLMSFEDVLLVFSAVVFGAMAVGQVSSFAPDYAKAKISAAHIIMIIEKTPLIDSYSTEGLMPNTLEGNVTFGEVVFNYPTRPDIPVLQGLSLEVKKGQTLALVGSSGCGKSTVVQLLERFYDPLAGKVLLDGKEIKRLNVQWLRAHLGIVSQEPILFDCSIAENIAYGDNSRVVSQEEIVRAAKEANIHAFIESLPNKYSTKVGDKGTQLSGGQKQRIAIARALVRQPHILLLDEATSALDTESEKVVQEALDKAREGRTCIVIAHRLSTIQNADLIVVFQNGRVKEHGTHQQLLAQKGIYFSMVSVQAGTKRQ
- Experimental Details: inside-out vesicular transport inhibition assay with tritiated probe substrate
- Assay type: biochemical
Test Readout: IC50
# output: number + unit

Memo: C=CC(=O)N1CCC[C@@H](n2nc(-c3ccc(Oc4ccccc4)cc3)c3c(N)ncnc32)C1 [ibrutinib] , reported IC50: 6 µM
